pKi: −log10 of the molar value.
Here we list compounds with their recorded pKi when tested on Cannabinoid receptor 2 (Homo sapiens).
Sequence (P34972 whole entry): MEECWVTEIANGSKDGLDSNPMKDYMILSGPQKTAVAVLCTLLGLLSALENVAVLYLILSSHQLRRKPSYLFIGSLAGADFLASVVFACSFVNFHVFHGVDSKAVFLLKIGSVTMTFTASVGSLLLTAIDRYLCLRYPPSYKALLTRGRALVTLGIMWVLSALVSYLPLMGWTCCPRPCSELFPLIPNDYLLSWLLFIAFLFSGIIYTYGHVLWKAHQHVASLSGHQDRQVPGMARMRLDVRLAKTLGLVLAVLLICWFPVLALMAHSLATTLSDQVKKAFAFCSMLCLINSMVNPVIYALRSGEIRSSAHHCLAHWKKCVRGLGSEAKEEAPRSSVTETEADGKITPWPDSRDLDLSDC
endpointName: pKi

[
  {
    "compoundString": "CC1=CC[C@@H]2[C@@H](C1)c1c(O)cc(C(C)(C)c3cc(C)cc(C)c3)cc1OC2(C)C",
    "testValue": 8.13
  },
  {
    "compoundString": "CC1=CC[C@@H]2[C@@H](C1)c1c(O)cc(C(C)(C)c3ccccc3C)cc1OC2(C)C",
    "testValue": 7.97
  },
  {
    "compoundString": "CC1=CC[C@@H]2[C@@H](C1)c1c(O)cc(C(C)(C)c3cccc(C#N)c3)cc1OC2(C)C",
    "testValue": 9.04
  },
  {
    "compoundString": "CC1=CC[C@@H]2[C@@H](C1)c1c(O)cc(C(C)(C)c3cccc(Br)c3)cc1OC2(C)C",
    "testValue": 9.27
  },
  {
    "compoundString": "CC1=CC[C@@H]2[C@@H](C1)c1c(O)cc(C(C)(C)c3ccc(Br)cc3)cc1OC2(C)C",
    "testValue": 8.81
  },
  {
    "compoundString": "CCc1ccc(C(C)(C)c2cc(O)c3c(c2)OC(C)(C)[C@@H]2CC=C(C)C[C@@H]32)cc1",
    "testValue": 9.17
  },
  {
    "compoundString": "CC1=CC[C@@H]2[C@@H](C1)c1c(O)cc(C(C)(C)c3cccc(C)c3)cc1OC2(C)C",
    "testValue": 8.95
  },
  {
    "compoundString": "CC1=CC[C@@H]2[C@@H](C1)c1c(O)cc(C(C)(C)c3ccc(Cl)cc3)cc1OC2(C)C",
    "testValue": 8.77
  },
  {
    "compoundString": "CCCc1ccc(C(C)(C)c2cc(O)c3c(c2)OC(C)(C)[C@@H]2CC=C(C)C[C@@H]32)cc1",
    "testValue": 8.11
  },
  {
    "compoundString": "CC1=CC[C@@H]2[C@@H](C1)c1c(O)cc(C(C)(C)c3cccc(F)c3)cc1OC2(C)C",
    "testValue": 9.05
  },
  {
    "compoundString": "CC1=CC[C@@H]2[C@@H](C1)c1c(O)cc(C(C)(C)c3ccc(C)cc3)cc1OC2(C)C",
    "testValue": 9.06
  },
  {
    "compoundString": "CC1=CC[C@@H]2[C@@H](C1)c1c(O)cc(C(C)(C)c3ccc(C#N)cc3)cc1OC2(C)C",
    "testValue": 8.60
  },
  {
    "compoundString": "CC1=CC[C@@H]2[C@@H](C1)c1c(O)cc(C(C)(C)c3ccc(F)cc3)cc1OC2(C)C",
    "testValue": 7.91
  },
  {
    "compoundString": "CC1=CC[C@@H]2[C@@H](C1)c1c(O)cc(C(C)(C)c3cccc(Cl)c3)cc1OC2(C)C",
    "testValue": 8.45
  },
  {
    "compoundString": "CC1=CC[C@@H]2[C@@H](C1)c1c(O)cc(C(C)(C)c3cccs3)cc1OC2(C)C",
    "testValue": 9.57
  }
]

----------
The compounds listed here are annotated with their Ratio Ki.
Species on record: Homo sapiens
Experiment: Selectivity ratio of Ki for human CB1 receptor to Ki for human CB2 receptor

[
  {
    "compoundString": "CC1=CC[C@@H]2[C@@H](C1)c1c(O)cc(C(C)(C)c3ccc(C)cc3)cc1OC2(C)C",
    "Ratio Ki": 3.56
  },
  {
    "compoundString": "CC1=CC[C@@H]2[C@@H](C1)c1c(O)cc(C(C)(C)c3ccc(C(N)=O)cc3)cc1OC2(C)C",
    "Ratio Ki": 1.01
  },
  {
    "compoundString": "CC1=CC[C@@H]2[C@@H](C1)c1c(O)cc(C(C)(C)c3ccc(F)cc3)cc1OC2(C)C",
    "Ratio Ki": 6.14
  },
  {
    "compoundString": "CC1=CC[C@@H]2[C@@H](C1)c1c(O)cc(C(C)(C)c3cccc(F)c3)cc1OC2(C)C",
    "Ratio Ki": 5.84
  }
]
